Molecular target: Interleukin-23 receptor (Homo sapiens, UniProt Q5VWK5)
Sequence (Q5VWK5 whole entry): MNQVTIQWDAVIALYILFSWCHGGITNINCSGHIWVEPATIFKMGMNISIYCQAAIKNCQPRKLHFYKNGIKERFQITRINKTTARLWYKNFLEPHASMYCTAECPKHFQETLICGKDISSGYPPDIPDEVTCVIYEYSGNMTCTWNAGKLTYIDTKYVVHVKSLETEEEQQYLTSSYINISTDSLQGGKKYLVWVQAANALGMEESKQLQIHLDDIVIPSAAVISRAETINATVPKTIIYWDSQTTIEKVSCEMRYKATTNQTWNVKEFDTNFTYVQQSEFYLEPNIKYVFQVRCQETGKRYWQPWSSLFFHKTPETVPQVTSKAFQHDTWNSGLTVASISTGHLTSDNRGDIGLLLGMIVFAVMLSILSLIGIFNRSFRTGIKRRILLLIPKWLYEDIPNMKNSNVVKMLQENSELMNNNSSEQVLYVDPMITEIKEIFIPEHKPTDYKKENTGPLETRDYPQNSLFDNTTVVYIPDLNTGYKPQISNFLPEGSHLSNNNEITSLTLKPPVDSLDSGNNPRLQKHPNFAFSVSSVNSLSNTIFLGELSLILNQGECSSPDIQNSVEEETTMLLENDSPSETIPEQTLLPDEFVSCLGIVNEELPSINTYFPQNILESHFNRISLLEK
Assay: Inhibition of interleukin-23 binding to human interleukin-23 receptor incubated for 2 hrs by competitive binding ELISA
*1 amine or outer side, *2 acyl side, *3 side chain or, on linkers, in order; H or OH if unused. Where a SMILES comes first, the peptide text is derived from it. Bridges are numbered along the chain shown (N, C = ends). [ ]: non-standard residue; d: D form. Abu(4-yl) = O=C([C@H](CC[*:3])N[*:1])[*:2]; 2Nal = N[C@@H](Cc1ccc2ccccc2c1)C(=O)O; αMeK = C[C@](N)(CCCCN)C(=O)O
In this section we review reported IC50 values for a set of compounds.

{"columns": ["compound", "reportedMeasurement"],
 "data": [
  ["CC(=O)N[C@@H](CS)C(=O)N[C@@H](C)C(=O)N[C@@H](CC(=O)O)C(=O)N[C@@H](Cc1c[nH]c2ccccc12)C(=O)N[C@H](C(=O)N[C@@H](CS)C(=O)N[C@@H](Cc1ccc(O)cc1)C(=O)N[C@@H](Cc1cccc2ccccc12)C(=O)N[C@H](C)C(=O)N[C@H](C(=O)N[C@@H](Cc1ccccc1)C(=O)NCC(N)=O)[C@@H](C)O)C(C)C", "> 1000 nM"],
  ["CC(=O)N[C@H]1CCSC[C@@H](C(=O)N[C@@H](Cc2ccc3ccccc3c2)C(=O)N[C@@H](Cc2ccc3ccccc3c2)C(=O)N[C@@](C)(CCCCN)C(=O)N[C@@H](CCC(=O)O)C(=O)N[C@@H](CC(N)=O)C(=O)NCC(N)=O)NC(=O)[C@H](CCC(N)=O)NC(=O)[C@H](Cc2c[nH]c3ccccc23)NC(=O)[C@H]([C@@H](C)O)NC(=O)[C@H](CCC(N)=O)NC1=O (Ac-[Abu(4-yl)]QTWQC[2Nal][2Nal][αMeK]ENG-NH2; thioether 1-6)", "10 to 25 nM"],
  ["CC(=O)N[C@H]1CCSC[C@@H](C(=O)N[C@@H](Cc2ccc(OCCN)cc2)C(=O)N[C@@H](Cc2c[nH]c3ccccc23)C(=O)N[C@@](C)(CCCCN)C(=O)N[C@@H](CCC(=O)O)C(=O)N[C@@H](CC(N)=O)C(=O)NCC(N)=O)NC(=O)[C@H](CCC(N)=O)NC(=O)[C@H](Cc2c[nH]c3ccccc23)NC(=O)[C@H]([C@@H](C)O)NC(=O)[C@H](CCC(N)=O)NC1=O", "10 to 25 nM"],
  ["CC(=O)NCCCC[C@](C)(NC(=O)[C@H](Cc1ccc2ccccc2c1)NC(=O)[C@H](Cc1ccc(OCCNC(C)=O)cc1)NC(=O)[C@@H]1CSCC[C@H](NC(C)=O)C(=O)N[C@@H](CCC(N)=O)C(=O)N[C@@H]([C@@H](C)O)C(=O)N[C@@H](Cc2c[nH]c3ccccc23)C(=O)N[C@@H](CCC(N)=O)C(=O)N1)C(=O)N[C@@H](CCC(=O)O)C(=O)N[C@@H](CC(N)=O)C(=O)N[C@@H](CC(N)=O)C(N)=O", "< 10 nM"],
  ["CC(=O)N[C@@H](CS)C(=O)N[C@@H](CCC(N)=O)C(=O)N[C@H](C(=O)N[C@@H](Cc1c[nH]c2ccccc12)C(=O)N[C@@H](CCC(N)=O)C(=O)N[C@H](C(=O)N[C@@H](Cc1ccc(O)cc1)C(=O)N[C@@H](Cc1c[nH]c2ccccc12)C(=O)N[C@H](CC(N)=O)C(=O)N[C@@H](CCC(=O)O)C(=O)N[C@@H](CC(N)=O)C(=O)NCC(N)=O)C(C)(C)S)[C@@H](C)O", "1000 to 10000 nM"]
]}

# input for lookup
Could you tell me which IC50 is on file for `CC(C)[C@H](NC(=O)[C@H](Cc1c[nH]c2ccccc12)N(C)C(=O)[C@H](CC(=O)O)NC(=O)[C@H](C)NC(=O)[C@@H](N)CS)C(=O)N[C@@H](CS)C(=O)N[C@@H](Cc1ccc(O)cc1)C(=O)N[C@@H](Cc1cccc2ccccc12)C(=O)N[C@@H](Cc1cnc[nH]1)C(=O)N[C@H](C(=O)N[C@@H](Cc1ccccc1)C(=O)O)[C@@H](C)O` ?
> 1000 nM
